Answer each item with its documented normalised inhibition (eCFP-eYFP dual reporter).
Target: NOG; also: test concentration or dose not given here
Experiment: reporter assay of Huesken 2005
Settings: siRNA
Oligonucleotides are written 5' to 3', each unit as a sugar letter and its base; * is a phosphorothioate linkage, no mark a phosphodiester; rarer units and linkages stand in square brackets, end groups in braces. Plain capitals give the bases only. d = 2'-deoxy (DNA); r = 2'-OH (RNA)
Answer format: numeric, % implied, no suffix.

So what does the record say about normalised inhibition (eCFP-eYFP dual reporter) for sense rGrCrUrGrCrGrGrUrGrGrCrGrCrUrGrUrCrArGdTdT / antisense rCrUrGrArCrArGrCrGrCrCrArCrCrGrCrArGrCdAdC ?
80.5

Please do the same for sense rGrGrCrUrUrCrArUrGrGrCrCrArCrCrUrCrGrCdTdT / antisense rGrCrGrArGrGrUrGrGrCrCrArUrGrArArGrCrCdTdG as well.
64.6

Please do the same for sense rCrArGrCrGrCrCrUrArArGrCrArArGrArArGrCdTdT / antisense rGrCrUrUrCrUrUrGrCrUrUrArGrGrCrGrCrUrGdCdT as well.
62.6

Please do the same for sense rUrCrCrGrCrCrCrGrGrCrArCrCrCrArGrCrGrAdTdT / antisense rUrCrGrCrUrGrGrGrUrGrCrCrGrGrGrCrGrGrAdTdG as well.
72

Please do the same for sense rUrCrUrGrCrCrCrCrGrUrGrCrUrGrUrArCrGrCdTdT / antisense rGrCrGrUrArCrArGrCrArCrGrGrGrGrCrArGrAdAdT as well.
61

Please do the same for sense rUrGrGrUrGrGrArCrCrUrCrArUrCrGrArArCrAdTdT / antisense rUrGrUrUrCrGrArUrGrArGrGrUrCrCrArCrCrAdGdG as well.
96.4

Please do the same for sense rCrGrCrArGrArCrArUrUrCrUrGrCrCrCrCrGrUdTdT / antisense rArCrGrGrGrGrCrArGrArArUrGrUrCrUrGrCrGdAdC as well.
53

Please do the same for sense rGrCrCrUrArArGrCrArArGrArArGrCrUrGrCrGdTdT / antisense rCrGrCrArGrCrUrUrCrUrUrGrCrUrUrArGrGrCdGdC as well.
85.7

Please do the same for sense rCrUrGrArArCrGrArGrArCrGrCrUrGrCrUrGrCdTdT / antisense rGrCrArGrCrArGrCrGrUrCrUrCrGrUrUrCrArGdAdT as well.
46.9

Please do the same for sense rGrArCrCrArGrCrUrGrCrUrGrCrGrGrCrArGrCdTdT / antisense rGrCrUrGrCrCrGrCrArGrCrArGrCrUrGrGrUrCdCdA as well.
55.2

Please do the same for sense rArCrGrArCrCrUrGrGrGrCrArGrCrCrGrCrUrUdTdT / antisense rArArGrCrGrGrCrUrGrCrCrCrArGrGrUrCrGrUdTdC as well.
51.1

Please do the same for sense rCrCrUrCrArCrGrGrUrGrCrUrGrCrGrGrUrGrGdTdT / antisense rCrCrArCrCrGrCrArGrCrArCrCrGrUrGrArGrGdTdG as well.
70.1

Please do the same for sense rGrCrArGrCrUrGrCrUrUrCrArGrUrArArGrCrGdTdT / antisense rCrGrCrUrUrArCrUrGrArArGrCrArGrCrUrGrCdCdC as well.
63.1

Please do the same for sense rCrCrUrArUrCrUrUrUrGrArCrCrCrCrArArGrGdTdT / antisense rCrCrUrUrGrGrGrGrUrCrArArArGrArUrArGrGdGdT as well.
89.1

Please do the same for sense rUrGrUrGrGrUrCrGrCrArGrArCrArUrUrCrUrGdTdT / antisense rCrArGrArArUrGrUrCrUrGrCrGrArCrCrArCrAdGdC as well.
57.5

Please do the same for sense rGrCrUrGrCrGrCrUrCrGrCrUrGrCrUrCrGrGrGdTdT / antisense rCrCrCrGrArGrCrArGrCrGrArGrCrGrCrArGrCdAdG as well.
67.1

Please do the same for sense rGrUrCrCrArArGrUrCrCrGrUrGrCrArCrCrUrCdTdT / antisense rGrArGrGrUrGrCrArCrGrGrArCrUrUrGrGrArCdGdG as well.
55.7

Please do the same for sense rArGrGrGrCrArUrGrGrUrGrUrGrCrArArGrCrCdTdT / antisense rGrGrCrUrUrGrCrArCrArCrCrArUrGrCrCrCrUdCdG as well.
75.7

Please do the same for sense rGrArArGrCrArGrCrGrCrCrUrArArGrCrArArGdTdT / antisense rCrUrUrGrCrUrUrArGrGrCrGrCrUrGrCrUrUrCdTdT as well.
83

Please do the same for sense rArCrCrUrCrArUrCrGrArArCrArCrCrCrArGrAdTdT / antisense rUrCrUrGrGrGrUrGrUrUrCrGrArUrGrArGrGrUdCdC as well.
102

Please do the same for sense rGrArCrGrCrUrGrCrUrGrCrGrCrUrCrGrCrUrGdTdT / antisense rCrArGrCrGrArGrCrGrCrArGrCrArGrCrGrUrCdTdC as well.
70.9

Please do the same for sense rUrArCrGrCrGrUrGrGrArArCrGrArCrCrUrGrGdTdT / antisense rCrCrArGrGrUrCrGrUrUrCrCrArCrGrCrGrUrAdCdA as well.
51.8

Please do the same for sense rGrUrGrGrCrUrGrUrGrGrUrCrGrCrArGrArCrAdTdT / antisense rUrGrUrCrUrGrCrGrArCrCrArCrArGrCrCrArCdAdT as well.
83.3

Please do the same for sense rGrArArCrGrArGrArCrGrCrUrGrCrUrGrCrGrCdTdT / antisense rGrCrGrCrArGrCrArGrCrGrUrCrUrCrGrUrUrCdAdG as well.
74.1
